Assay: Solubility in 30% methanol: 0.1 M sodium dihydrogen phosphate, pH 7.0
Assay type: physicochemical
Conditions: 0.1 m nah2po4, pH 7, organic solvent or mixture, Concentration (footnote: Solubility in 30% methanol: 0.1 M sodium dihydrogen phosphate, pH 7.0)

STRUCTURE_SMILES: CCCC(=O)OCC(C)(C)N.Cl
solubility: 1070 µg/mL
//
STRUCTURE_SMILES: CCCCCCCC(=O)OCC(C)(C)N.Cl
solubility: 1040 µg/mL
//
STRUCTURE_SMILES: CCCCCC(=O)OCC(C)(C)N.Cl
solubility: 1040 µg/mL

* * *

The following compounds are listed with their measured MIC values.
Tested on: E. coli
Test: Minimal inhibitory concentration (MIC), Example V
Format: cell-based
Settings: Escherichia coli
MEASUREMENT_KIND: MIC

STRUCTURE_SMILES: CCCC(=O)OCC(C)(C)N.Cl
ASSAYED_SYSTEM: E. coli
MEASUREMENT_KIND: MIC
DATA_VALUE: > 62.5 µg/mL
--
STRUCTURE_SMILES: CCCC(=O)OCC(C)(C)N(Cl)Cl
ASSAYED_SYSTEM: E. coli
MEASUREMENT_KIND: MIC
DATA_VALUE: > 62.5 µg/mL
--
STRUCTURE_SMILES: CCCCCC(=O)OCC(C)(C)N.Cl
ASSAYED_SYSTEM: E. coli
MEASUREMENT_KIND: MIC
DATA_VALUE: > 62.5 µg/mL
--
STRUCTURE_SMILES: CCCCCCCC(=O)OCC(C)(C)N(Cl)Cl
ASSAYED_SYSTEM: E. coli
MEASUREMENT_KIND: MIC
DATA_VALUE: > 62.5 µg/mL
--
STRUCTURE_SMILES: CC(C)(C)C(=O)OCC(C)(C)N(Cl)Cl
ASSAYED_SYSTEM: E. coli
MEASUREMENT_KIND: MIC
DATA_VALUE: > 125 µg/mL
--
STRUCTURE_SMILES: CCCC(=O)OCC(C)(C)NCl
ASSAYED_SYSTEM: E. coli
MEASUREMENT_KIND: MIC
DATA_VALUE: > 62.5 µg/mL
--
STRUCTURE_SMILES: CCCCCC(=O)OCC(C)(C)N(Cl)Cl
ASSAYED_SYSTEM: E. coli
MEASUREMENT_KIND: MIC
DATA_VALUE: > 62.5 µg/mL
--
STRUCTURE_SMILES: CC(C)(COC(=O)C(C)(C)C)NCl
ASSAYED_SYSTEM: E. coli
MEASUREMENT_KIND: MIC
DATA_VALUE: > 250 µg/mL
--
STRUCTURE_SMILES: CCCCCC(=O)OCC(C)(C)NCl
ASSAYED_SYSTEM: E. coli
MEASUREMENT_KIND: MIC
DATA_VALUE: > 62.5 µg/mL
--
STRUCTURE_SMILES: CC(=O)OCC(C)(C)N(Cl)Cl
ASSAYED_SYSTEM: E. coli
MEASUREMENT_KIND: MIC
DATA_VALUE: > 62.5 µg/mL
--
STRUCTURE_SMILES: CCCCCCCC(=O)OCC(C)(C)N.Cl
ASSAYED_SYSTEM: E. coli
MEASUREMENT_KIND: MIC
DATA_VALUE: > 62.5 µg/mL
--
STRUCTURE_SMILES: CCCCCCCC(=O)OCC(C)(C)NCl
ASSAYED_SYSTEM: E. coli
MEASUREMENT_KIND: MIC
DATA_VALUE: > 62.5 µg/mL
--
STRUCTURE_SMILES: C[n+]1cccc(C(=O)OCC(C)(C)N(Cl)Cl)c1
ASSAYED_SYSTEM: E. coli
MEASUREMENT_KIND: MIC
DATA_VALUE: > 250 µg/mL
